Reference source: the supplement of paper PMC4466140

Target: AgBbc1
Test: SPOT peptide array binding signal intensity (averaged, normalized) (arbitrary units (background-subtracted, floor 0; scale differs between SH3 domains)); higher = stronger binding of the SH3 domain to the peptide
property_measured: SPOT peptide array binding signal intensity

Quickly give me recorded SPOT peptide array binding signal intensity for DHPKGPPPPPPPDEK
3.75

Retrieve SPOT peptide array binding signal intensity measured for GRSRLFPHSPLGRSS and print it.
13.8

For the binder TPRLSLPRLPNKHHW , give its measured SPOT peptide array binding signal intensity value.
1.5

Input LYKRKPILLPDPKPL , output reported SPOT peptide array binding signal intensity.
≤ 0

State its SPOT peptide array binding signal intensity for this binder: RLSFFFPLDPAYIRN
2.25

Answer with the recorded SPOT peptide array binding signal intensity of LTRRFPFLFPFDTRM only.
≤ 0

Give the measured SPOT peptide array binding signal intensity for DTIDNVKSKIQDKEG
≤ 0
